target: KRAS G12C-BRAF complex (Homo sapiens (Human), UniProt P01116+P62937, G12C); assay: KRAS-BRAF with CYPA (500 nM) interaction assay (TR-FRET, Example 136); conditions: KRAS G12C-BRAF disruption
Sequence (P01116-2 other isoform, or with tags, fused parts or gaps G12C): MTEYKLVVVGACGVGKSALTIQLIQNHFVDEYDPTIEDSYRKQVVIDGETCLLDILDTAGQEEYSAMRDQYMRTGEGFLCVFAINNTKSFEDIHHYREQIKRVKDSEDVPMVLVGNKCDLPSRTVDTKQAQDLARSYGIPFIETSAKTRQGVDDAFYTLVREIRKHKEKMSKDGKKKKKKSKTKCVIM
Sequence (P62937 whole entry): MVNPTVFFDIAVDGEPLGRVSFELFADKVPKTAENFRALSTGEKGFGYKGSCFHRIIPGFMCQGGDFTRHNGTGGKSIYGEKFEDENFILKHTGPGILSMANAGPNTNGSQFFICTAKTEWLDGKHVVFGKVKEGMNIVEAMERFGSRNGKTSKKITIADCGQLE
property.label: IC50 (nM)
Output spec: scalar in nM, unitless text.

Returns the measured IC50 for the input molecule. Input: CO[C@@H](C)c1ncc(N2CCN3CCOC[C@@H]3C2)cc1-c1c2c3cc(cc4c3n1CCC4)-c1csc(n1)C[C@H](NC(=O)[C@H]1[C@@H]3COC[C@@H]31)C(=O)N1CCC[C@H](N1)C(=O)OCC(C)(C)C2 (atropisomer, axis not shown; (M)) [Example 40]
13

Entry under review: CO[C@@H](C)c1ncc(N2CCN(CCF)CC2)cc1-c1c2c3cc(cc4c3n1CCC4)-c1csc(n1)C[C@H](NC(=O)[C@H]1[C@H](C)[C@@H]1C)C(=O)N1CCC[C@H](N1)C(=O)OCC(C)(C)C2 (atropisomer, axis not shown; (M)) [Example 110] . Reported IC50?
4.9

----------
system: AGS cells (KRAS G12D); experiment: Cell viability assay (Cell Counting Kit-8, 3-day); format: cell-based, human; conditions: Homo sapiens, 72 h, 72 hrs incubation
property.label: IC50 (nM)
Respond with the bare value in nM.

As a guide, the following entries are already answered.
{"columns": ["compound", "IC50 (nM)"],
 "data": [
  ["CO[C@@H](C)c1ncc(N2CCN(C)CC2)cc1-c1c2c3cc(cc4c3n1CCC4)-c1csc(n1)C[C@H](NC(=O)[C@@H]1C[C@H]1c1cccnc1C)C(=O)N1CCC[C@H](N1)C(=O)OCC(C)(C)C2 (atropisomer, axis not shown; (M))", 3.5],
  ["CO[C@@H](C)c1ncc(N2CCOCC2)cc1-c1c2c3cc(cc4c3n1CC(F)(F)C4)-c1csc(n1)C[C@H](NC(=O)[C@H]1C[C@@H]1C)C(=O)N1CCC[C@H](N1)C(=O)OCC(C)(C)C2 (atropisomer, axis not shown; (M))", 58.7],
  ["CO[C@@H](C)c1ncc(N2CCOCC2)cc1-c1c2c3cc(cc4c3n1CCC4)-c1csc(n1)C[C@H](NC(=O)[C@H]1C[C@@H]1C(F)F)C(=O)N1CCC[C@H](N1)C(=O)OCC(C)(C)C2 (atropisomer, axis not shown; (M))", 19.4],
  ["CO[C@@H](C)c1ncc(N2CCN(C)CC2)cc1-c1c2c3cc(cc4c3n1CCC4)-c1csc(n1)C[C@H](NC(=O)[C@@H]1[C@@H]3COC[C@@H]31)C(=O)N1CCC[C@H](N1)C(=O)OCC(C)(C)C2 (atropisomer, axis not shown; (M))", 22.4],
  ["CO[C@@H](C)c1ncc(N2CCN(C)CC2)cc1-c1c2c3cc(cc4c3n1CCC4)-c1csc(n1)C[C@H](NC(=O)C1(C)CC1(F)F)C(=O)N1CCC[C@H](N1)C(=O)OCC(C)(C)C2 (stereo partly drawn)", 98.7]
]}

Which IC50 is reported with AGS cells (KRAS G12D) for this entry: CO[C@@H](C)c1ncc(N2CCOCC2)cc1-c1c2c3cc(cc4c3n1CC(F)(F)C4)-c1csc(n1)C[C@H](NC(=O)[C@H]1C[C@@H]1c1ccccc1)C(=O)N1CCC[C@H](N1)C(=O)OCC(C)(C)C2 (atropisomer, axis not shown; (M)) ?
57

Return IC50 measured with AGS cells (KRAS G12D) given this compound: CO[C@@H](C)c1ncc(N2CCOCC2)cc1-c1c2c3cc(cc4c3n1CCC4)-c1csc(n1)C[C@H](NC(=O)[C@H]1C[C@@H]1c1cncnc1)C(=O)N1CCC[C@H](N1)C(=O)OCC(C)(C)C2 (atropisomer, axis not shown; (M))
6.9

Which IC50 is reported with AGS cells (KRAS G12D) for this entry: CCN1CCN(c2cnc([C@H](C)OC)c(-c3c4c5cc(cc6c5n3CCC6)-c3csc(n3)C[C@H](NC(=O)[C@H]3[C@H](C)[C@@H]3C)C(=O)N3CCC[C@H](N3)C(=O)OCC(C)(C)C4)c2)CC1 (atropisomer, axis not shown; (M)) ?
1.5

----------
tested on: AGS cells (KRAS G12D); assay: Cell viability assay (Cell Counting Kit-8, 3-day); format: cell-based, human; details: Homo sapiens, 72 h, 72 hrs incubation
pIC50: −log10 of the molar value.
Please note: YES applies when pIC50 is 8 or greater, and NO applies otherwise.

Here's what some known entries look like.
{"columns": ["molecule", "cat"],
 "data": [
  ["CO[C@@H](C)c1ncc(N2CCN3CCCC[C@@H]3C2)cc1-c1c2c3cc(cc4c3n1CCC4)-c1csc(n1)C[C@H](NC(=O)[C@H]1C[C@@H]1C)C(=O)N1CCC[C@H](N1)C(=O)OCC(C)(C)C2 (atropisomer, axis not shown; (M))", "NO"],
  ["CO[C@@H](C)c1ncc(N2CCN(C)CC2)cc1-c1c2c3cc(cc4c3n1CCC4)-c1csc(n1)C[C@H](NC(=O)[C@@H]1C[C@H]1c1ncccn1)C(=O)N1CCC[C@H](N1)C(=O)OCC(C)(C)C2 (atropisomer, axis not shown)", "NO"],
  ["CO[C@@H](C)c1ncc(N2CCN(C)CC2)cc1-c1c2c3cc(cc4c3n1CCC4)-c1csc(n1)C[C@H](NC(=O)[C@H]1C[C@@H]1c1ccccn1)C(=O)N1CCC[C@H](N1)C(=O)OCC(C)(C)C2 (atropisomer, axis not shown; (M))", "NO"],
  ["CO[C@@H](C)c1ncc(N2CCN(C)CC2)cc1-c1c2c3cc(cc4c3n1CCC4)-c1csc(n1)C[C@H](NC(=O)[C@H]1C[C@H]1C)C(=O)N1CCC[C@H](N1)C(=O)OCC(C)(C)C2 (atropisomer, axis not shown; (M))", "NO"],
  ["CO[C@@H](C)c1ncc(N2CCOCC2)cc1-c1c2c3cc(cc4c3n1CCC4)-c1csc(n1)C[C@H](NC(=O)[C@@H]1C[C@H]1C1CC1)C(=O)N1CCC[C@H](N1)C(=O)OCC(C)(C)C2 (atropisomer, axis not shown; (M))", "NO"]
]}

I'd appreciate it if you could say whether CO[C@@H](C)c1ncc(N2CCN(CC(F)(F)F)CC2)cc1-c1c2c3cc(cc4c3n1CCC4)-c1csc(n1)C[C@H](NC(=O)[C@H]1[C@@H]3COC[C@@H]31)C(=O)N1CCC[C@H](N1)C(=O)OCC(C)(C)C2 (atropisomer, axis not shown; (M)) has pIC50 at least equal to 8.
NO

Is the recorded value of pIC50 equal to or greater than 8 for this molecule? CO[C@@H](C)c1ncc(N2CCN(C)CC2)cc1-c1c2c3cc(cc4c3n1CCC4)-c1csc(n1)C[C@H](NC(=O)[C@@H]1C[C@H]1c1cscn1)C(=O)N1CCC[C@H](N1)C(=O)OCC(C)(C)C2 (atropisomer, axis not shown; (M))
YES

For this molecule, is measured pIC50 8 or higher? CO[C@@H](C)c1ncc(N2CCN(C)CC2)cc1-c1c2c3cc(cc4c3n1CCO4)-c1csc(n1)C[C@H](NC(=O)[C@H]1C[C@@H]1c1cccnc1)C(=O)N1CCC[C@H](N1)C(=O)OCC(C)(C)C2 (atropisomer, axis not shown; (M))
YES

----------
system: SW620 cells (KRAS G12V); assay: Cell viability assay (Cell Counting Kit-8, 3-day); type: cell-based, human; conditions: Homo sapiens, SW-620; SW620, 72 hrs incubation
property.label: pIC50
// pIC50 here means minus log10 of the molar concentration (mol/L)

Some compounds with recorded pIC50:
{"columns": ["compound", "target.of.assay", "property.label", "recorded.value"],
 "data": [
  ["CO[C@@H](C)c1ncc(N2CCOCC2)cc1-c1c2c3cc(cc4c3n1CCC4)-c1csc(n1)C[C@H](NC(=O)[C@H]1C[C@@H]1c1cccnc1)C(=O)N1CCC[C@H](N1)C(=O)OCC(C)(C)C2 (atropisomer, axis not shown; (M)) [Example 89]", "SW620 cells (KRAS G12V)", "pIC50", 9.52],
  ["CO[C@@H](C)c1ncc(N2CCN3CCOC[C@@H]3C2)cc1-c1c2c3cc(cc4c3n1CCC4)-c1csc(n1)C[C@H](NC(=O)[C@H]1C[C@@H]1C)C(=O)N1CCC[C@H](N1)C(=O)OCC(C)(C)C2 (atropisomer, axis not shown; (M)) [Example 25]", "SW620 cells (KRAS G12V)", "pIC50", 8.74],
  ["CO[C@@H](C)c1ncc(N2CCN(C)CC2)cc1-c1c2c3cc(cc4c3n1CCO4)-c1csc(n1)C[C@H](NC(=O)[C@@H]1C[C@H]1C1CC1)C(=O)N1CCC[C@H](N1)C(=O)OCC(C)(C)C2 (atropisomer, axis not shown; (M)) [Example 64]", "SW620 cells (KRAS G12V)", "pIC50", 8.89],
  ["CO[C@@H](C)c1ncc(N2CCOCC2)cc1-c1c2c3cc(cc4c3n1CCO4)-c1csc(n1)C[C@H](NC(=O)[C@H]1[C@H](C)[C@@H]1C)C(=O)N1CCC[C@H](N1)C(=O)OCC(C)(C)C2 (atropisomer, axis not shown; (M)) [Example 68]", "SW620 cells (KRAS G12V)", "pIC50", 9.30]
]}

What value of pIC50 has been reported for the following compound? CO[C@@H](C)c1ncc(N2CCN(C3CCOCC3)CC2)cc1-c1c2c3cc(cc4c3n1CCC4)-c1csc(n1)C[C@H](NC(=O)[C@H]1[C@H](C)[C@@H]1C)C(=O)N1CCC[C@H](N1)C(=O)OCC(C)(C)C2 (atropisomer, axis not shown; (M)) [Example 117]
9.70

Can you share its pIC50? I mean this compound: CO[C@@H](C)c1ncc(N2CCN(CC(F)(F)F)CC2)cc1-c1c2c3cc(cc4c3n1CCO4)-c1csc(n1)C[C@H](NC(=O)[C@H]1[C@@H]3COC[C@@H]31)C(=O)N1CCC[C@H](N1)C(=O)OCC(C)(C)C2 (atropisomer, axis not shown; (M)) [Example 12]
8.70

Need pIC50, item CO[C@@H](C)c1ncc(N2CCN(C)CC2)cc1-c1c2c3cc(cc4c3n1CCC4)-c1csc(n1)C[C@H](NC(=O)[C@H]1C[C@@H]1c1cccnn1)C(=O)N1CCC[C@H](N1)C(=O)OCC(C)(C)C2 (atropisomer, axis not shown; (M)) [Example 63]
8.38

Look up pIC50 for this compound: CO[C@@H](C)c1ncc(N2CCN(C)CC2)cc1-c1c2c3cc(cc4c3n1CC(F)(F)C4)-c1csc(n1)C[C@H](NC(=O)[C@H]1C[C@@H]1c1ccccc1)C(=O)N1CCC[C@H](N1)C(=O)OCC(C)(C)C2 (atropisomer, axis not shown; (M)) [Example 78]
8.64

Suppose we examine the compound CO[C@@H](C)c1ncc(N2CCN(C)CC2)cc1-c1c2c3cc(cc4c3n1CCC4)-c1csc(n1)C[C@H](NC(=O)[C@H]1C[C@@H]1C(F)F)C(=O)N1CCC[C@H](N1)C(=O)OCC(C)(C)C2 (atropisomer, axis not shown; (M)) [Example 14] ; what pIC50 value has been reported?
9.00

// pIC50 lookup, key: CO[C@@H](C)c1ncc(N2CCN(C[C@@H]3CNCCO3)CC2)cc1-c1c2c3cc(cc4c3n1CCC4)-c1csc(n1)C[C@H](NC(=O)[C@H]1[C@H](C)[C@@H]1C)C(=O)N1CCC[C@H](N1)C(=O)OCC(C)(C)C2 (atropisomer, axis not shown; (M)) [Example 119]
9.10

Need pIC50, item CO[C@@H](C)c1ncc(N2CCN(CC(F)(F)F)CC2)cc1-c1c2c3cc(cc4c3n1CC(F)(F)C4)-c1csc(n1)C[C@H](NC(=O)[C@H]1[C@H](C)[C@@H]1C)C(=O)N1CCC[C@H](N1)C(=O)OCC(C)(C)C2 (atropisomer, axis not shown; (M)) [Example 87]
8.40

Would you mind telling me what pIC50 value was observed for CO[C@@H](C)c1ncc(N2CCN(C)CC2)cc1-c1c2c3cc(cc4c3n1CCO4)-c1csc(n1)C[C@H](NC(=O)[C@H]1[C@H](C)[C@@H]1C)C(=O)N1CCC[C@H](N1)C(=O)OCC(C)(C)C2 (atropisomer, axis not shown; (M)) [Example 45] ?
9.70

Which pIC50 reading was recorded for the compound CO[C@@H](C)c1ncc(N2CCOCC2)cc1-c1c2c3cc(cc4c3n1CC(C)(C)O4)-c1csc(n1)C[C@H](NC(=O)[C@H]1[C@H](C)[C@@H]1C)C(=O)N1CCC[C@H](N1)C(=O)OCC(C)(C)C2 (atropisomer, axis not shown; (M)) [Example 61] ?
8.52

Returns the measured pIC50 for the input compound. Input: CO[C@@H](C)c1ncc(N2CCN(CCCO)CC2)cc1-c1c2c3cc(cc4c3n1CCC4)-c1csc(n1)C[C@H](NC(=O)[C@H]1[C@H](C)[C@@H]1C)C(=O)N1CCC[C@H](N1)C(=O)OCC(C)(C)C2 (atropisomer, axis not shown; (M)) [Example 111]
9.70

Returns the measured pIC50 for the input compound. Input: CO[C@@H](C)c1ncc(N2CCN(C)CC2)cc1-c1c2c3cc(cc4c3n1CCC4)-c1csc(n1)C[C@H](NC(=O)[C@H]1CC[C@H](c3nnnn3C)CC1)C(=O)N1CCC[C@H](N1)C(=O)OCC(C)(C)C2 (atropisomer, axis not shown; (M)) [Example 70]
7.75
